Assay: Cytotoxicity to mammalian cells, BC
Assay type: cell-based
Settings: human, BC cells (human breast cancer)
Please respond with reported IC50 for every item in the list.
Numeric only. Scale: µM

Find the recorded IC50 belonging to Nc1nc(N)c(-c2ccccc2)c(CCCc2ccccc2)n1 and report it. 250

Query (compound): COC(=O)CCCc1nc(N)nc(N)c1-c1ccccc1 ; field requested: IC50 500

Form field: reported IC50 of Nc1nc(N)c(-c2cccc(Cl)c2)c(CCOCCCOc2ccccc2)n1 4.9

Given COC(=O)CCCc1nc(N)nc(N)c1-c1cccc(Cl)c1 , state its recorded IC50. 22.8

IC50 for Nc1nc(N)c(-c2cccc(Cl)c2)c(CCCc2ccccc2)n1 ? 1.6

May I ask what IC50 has been recorded for CCCCCCc1nc(N)nc(N)c1-c1ccccc1 ? 268

What value of IC50 has been recorded for this entry: CCc1nc(N)nc(N)c1-c1ccc(Cl)cc1 [Pyr, pyrimethamine, reference compound] 40

Any idea what its IC50 is? The compound is COc1ccc(CCCc2nc(N)nc(N)c2-c2cccc(Cl)c2)cc1 3
